- MEASURED_TARGET: water-insoluble glucan producing enzyme (Streptococcus downei)
- Construct: endogenous in cells; host or cells: Streptococcus mutans 6715 strain (today S. sobrinus), culture supernatant, ammonium sulfate precipitate, dialyzed
- TEST_METHOD_NOTES: Effect of saccharides on formation of water-insoluble glucan from sucrose (Experiment 3)
- Format: biochemical, Streptococcus mutans 6715 strain
- PROTOCOL_CONDITIONS: 1 ml 4 w/v % sucrose plus 1 ml 4 w/v % saccharide, 0.02 units enzyme, 37° C., 16 hours; sucrose control 300
MEASUREMENT_TYPE: A: amounts of water-insoluble glucan formed (µg/mL)
Numbers only, in µg/mL.

Sample answers from the record:
What value of measured A: amounts of water-insoluble glucan formed is listed for OC[C@@H](O)[C@@H](O[C@H]1O[C@H](CO)[C@@H](O[C@H]2O[C@H](CO)[C@@H](O[C@H]3O[C@H](CO)[C@@H](O)[C@H](O)[C@H]3O)[C@H](O)[C@H]2O)[C@H](O)[C@H]1O)[C@H](O)[C@@H](O)CO [Maltotetraitol] ?
236

Item under review: OC[C@H]1O[C@@H](O[C@@H]2[C@@H](CO)OC(O)(CO)[C@H]2O)[C@H](O)[C@@H](O)[C@H]1O (mixture of isomers) [Lactulose] . Reported A: amounts of water-insoluble glucan formed?
264

Reported A: amounts of water-insoluble glucan formed, compound OC[C@H]1O[C@H](O[C@H]2[C@H](O)[C@@H](O)[C@@H](O[C@H]3[C@H](O)[C@@H](O)[C@@H](O[C@H]4[C@H](O)[C@@H](O)[C@@H](O[C@H]5[C@H](O)[C@@H](O)C(O)O[C@@H]5CO)O[C@@H]4CO)O[C@@H]3CO)O[C@@H]2CO)[C@H](O)[C@@H](O)[C@@H]1O (some centres unmarked) [Maltopentaose] : ____
264

Sample OC[C@@H](O)[C@@H](O)[C@H](O)[C@H](O)CO [Mannitol] — what was its A: amounts of water-insoluble glucan formed?
286

Now look at this one.
Given the compound OC[C@@H](O)[C@@H](O[C@H]1O[C@H](CO)[C@@H](O[C@H]2O[C@H](CO)[C@@H](O[C@H]3O[C@H](CO)[C@@H](O[C@H]4O[C@H](CO)[C@@H](O)[C@H](O)[C@H]4O)[C@H](O)[C@H]3O)[C@H](O)[C@H]2O)[C@H](O)[C@H]1O)[C@H](O)[C@@H](O)CO [Maltopentaitol] , what is its reported A: amounts of water-insoluble glucan formed?
265

====

- MEASURED_TARGET: water-insoluble glucan producing enzyme (Streptococcus downei, UniProt P27470)
- Construct: to the supernatant was added with ammonium sulfate to give 60% saturation; endogenous in cells; host or cells: Streptococcus mutans 6715 strain (today S. sobrinus), culture supernatant, ammonium sulfate precipitate, dialyzed
- Sequence (P27470 39-1592): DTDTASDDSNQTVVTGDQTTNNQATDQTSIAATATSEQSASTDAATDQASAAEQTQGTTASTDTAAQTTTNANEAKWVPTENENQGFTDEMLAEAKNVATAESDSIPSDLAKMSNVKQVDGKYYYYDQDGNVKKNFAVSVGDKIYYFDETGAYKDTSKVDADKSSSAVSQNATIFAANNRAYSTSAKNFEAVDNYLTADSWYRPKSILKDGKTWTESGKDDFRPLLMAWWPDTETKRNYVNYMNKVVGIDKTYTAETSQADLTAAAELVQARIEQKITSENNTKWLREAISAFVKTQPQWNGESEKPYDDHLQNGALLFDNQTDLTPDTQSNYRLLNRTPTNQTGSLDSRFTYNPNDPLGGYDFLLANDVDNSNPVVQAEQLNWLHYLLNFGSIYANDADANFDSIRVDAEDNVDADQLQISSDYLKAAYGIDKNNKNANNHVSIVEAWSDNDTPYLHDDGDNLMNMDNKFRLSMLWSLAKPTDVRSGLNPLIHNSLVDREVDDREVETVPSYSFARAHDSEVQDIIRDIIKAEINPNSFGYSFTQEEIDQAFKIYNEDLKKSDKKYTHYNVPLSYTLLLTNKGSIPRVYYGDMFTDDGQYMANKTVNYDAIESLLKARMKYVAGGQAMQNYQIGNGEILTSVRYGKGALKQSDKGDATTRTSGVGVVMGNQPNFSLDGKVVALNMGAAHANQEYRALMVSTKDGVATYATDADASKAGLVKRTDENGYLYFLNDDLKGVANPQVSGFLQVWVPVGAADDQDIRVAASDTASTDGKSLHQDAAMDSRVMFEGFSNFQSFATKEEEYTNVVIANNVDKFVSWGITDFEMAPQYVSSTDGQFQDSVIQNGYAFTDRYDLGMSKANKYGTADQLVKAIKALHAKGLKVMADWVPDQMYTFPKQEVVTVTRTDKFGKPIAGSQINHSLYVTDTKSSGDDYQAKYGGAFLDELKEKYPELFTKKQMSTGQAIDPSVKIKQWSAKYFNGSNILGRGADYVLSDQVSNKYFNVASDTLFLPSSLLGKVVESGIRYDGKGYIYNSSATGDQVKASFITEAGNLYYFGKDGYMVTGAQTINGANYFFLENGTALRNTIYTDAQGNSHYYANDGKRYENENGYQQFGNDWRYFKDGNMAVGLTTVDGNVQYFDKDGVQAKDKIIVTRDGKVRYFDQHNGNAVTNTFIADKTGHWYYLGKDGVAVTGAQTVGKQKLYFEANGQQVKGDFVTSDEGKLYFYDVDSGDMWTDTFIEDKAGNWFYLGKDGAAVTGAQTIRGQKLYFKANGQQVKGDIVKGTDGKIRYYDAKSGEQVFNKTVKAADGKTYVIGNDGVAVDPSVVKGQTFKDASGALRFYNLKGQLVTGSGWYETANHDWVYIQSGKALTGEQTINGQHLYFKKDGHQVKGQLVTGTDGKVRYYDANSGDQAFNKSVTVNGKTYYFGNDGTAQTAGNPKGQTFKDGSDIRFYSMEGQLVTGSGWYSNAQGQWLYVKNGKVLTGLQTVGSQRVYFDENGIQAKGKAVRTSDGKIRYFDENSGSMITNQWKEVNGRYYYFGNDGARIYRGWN
- TEST_METHOD_NOTES: Effect of saccharides on formation of water-insoluble glucan from sucrose (Experiment 3)
- Format: biochemical, Streptococcus mutans 6715 strain
- PROTOCOL_CONDITIONS: saccharide reduced to 10% against sucrose: 1 ml 4 w/v % sucrose plus 1 ml 0.4 w/v % saccharide, 37° C., 16 hours
Provide the reported C: inhibition degree of water-insoluble glucan formation of each item.
One number for each entry, in %.

API: value(readout=C: inhibition degree of water-insoluble glucan formation, system=water-insoluble glucan producing enzyme (Streptococcus downei, UniProt P27470)) for record OC[C@H]1O[C@H](OC[C@H]2O[C@H](OC[C@H]3O[C@H](OC[C@H]4O[C@H](OC[C@H]5OC(O)[C@H](O)[C@@H](O)[C@@H]5O)[C@H](O)[C@@H](O)[C@@H]4O)[C@H](O)[C@@H](O)[C@@H]3O)[C@H](O)[C@@H](O)[C@@H]2O)[C@H](O)[C@@H](O)[C@@H]1O (stereo partly drawn) [Isomaltopentaose, 6^3 -O-α-isomaltosyl isomaltotriose]
60

Turning to the following molecule.
Lab request: please report C: inhibition degree of water-insoluble glucan formation under test system water-insoluble glucan producing enzyme (Streptococcus downei, UniProt P27470) for OC[C@H]1O[C@H](OC[C@H]2O[C@H](O[C@H]3[C@H](O)[C@@H](O)C(O)O[C@@H]3CO)[C@H](O)[C@@H](O)[C@@H]2O)[C@H](O)[C@@H](O)[C@@H]1O (stereo partly drawn) [Panose, 4-O-α-isomaltosyl glucose]
47

====

Provide the reported A: amounts of water-insoluble glucan formed of each item.
- MEASURED_TARGET: water-insoluble glucan producing enzyme (Streptococcus downei, UniProt P27470)
- Construct: endogenous in cells; host or cells: Streptococcus mutans 6715 strain (today S. sobrinus), culture supernatant, ammonium sulfate precipitate, dialyzed
- TEST_METHOD_NOTES: Effect of saccharides on formation of water-insoluble glucan from sucrose (Experiment 3)
- Format: biochemical, Streptococcus mutans 6715 strain
- PROTOCOL_CONDITIONS: 1 ml 4 w/v % sucrose plus 1 ml 4 w/v % saccharide, 0.02 units enzyme, 37° C., 16 hours; sucrose control 300
Give bare numbers, in µg/mL.

These solved cases illustrate the format of a correct answer.
State its A: amounts of water-insoluble glucan formed on water-insoluble glucan producing enzyme (Streptococcus downei, UniProt P27470): "OC[C@H](O)[C@@H](O)[C@H](O)[C@H](O)CO[C@H]1O[C@H](CO[C@H]2O[C@H](CO[C@H]3O[C@H](CO[C@H]4O[C@H](CO)[C@@H](O)[C@H](O)[C@H]4O)[C@@H](O)[C@H](O)[C@H]3O)[C@@H](O)[C@H](O)[C@H]2O)[C@@H](O)[C@H](O)[C@H]1O"
66

What value of A: amounts of water-insoluble glucan formed on water-insoluble glucan producing enzyme (Streptococcus downei, UniProt P27470) does "OC[C@H](O)[C@@H](O)[C@H](O)[C@H](O)CO[C@H]1O[C@H](CO[C@H]2O[C@H](CO[C@H]3O[C@H](CO)[C@@H](O)[C@H](O)[C@H]3O)[C@@H](O)[C@H](O)[C@H]2O)[C@@H](O)[C@H](O)[C@H]1O" have?
45

// lookup A: amounts of water-insoluble glucan formed | system=water-insoluble glucan producing enzyme (Streptococcus downei, UniProt P27470) | key= "OC[C@@H](O)[C@@H](O)[C@H](O)[C@@H](O)CO"
290

Okay, next one:
Lab note: need A: amounts of water-insoluble glucan formed with water-insoluble glucan producing enzyme (Streptococcus downei, UniProt P27470) for entry "OC[C@@H](O)[C@@H](O[C@H]1O[C@H](CO)[C@@H](O[C@H]2O[C@H](CO)[C@@H](O)[C@H](O)[C@H]2O)[C@H](O)[C@H]1O)[C@H](O)[C@@H](O)CO" , please look it up.
262

====

- MEASURED_TARGET: water-insoluble glucan producing enzyme (Streptococcus downei)
- Construct: endogenous in cells; host or cells: Streptococcus mutans 6715 strain (today S. sobrinus), culture supernatant, ammonium sulfate precipitate, dialyzed
- TEST_METHOD_NOTES: Effect of saccharides on formation of water-insoluble glucan from sucrose (Experiment 3)
- Format: biochemical, Streptococcus mutans 6715 strain
- PROTOCOL_CONDITIONS: 1 ml 4 w/v % sucrose plus 1 ml 4 w/v % saccharide, 0.02 units enzyme, 37° C., 16 hours
Exercise: state measured B: inhibition degree on water-insoluble glucan formation for each of the compounds provided.
Answers are plain numbers, in %.

B: inhibition degree on water-insoluble glucan formation for "O=C(CO)[C@@H](O)[C@H](O[C@H]1O[C@H](CO)[C@@H](O)[C@H](O)[C@H]1O)[C@H](O)CO" ?
40

For each of the compounds below, state B: inhibition degree on water-insoluble glucan formation.
1. OC[C@H]1O[C@@](CO)(OC[C@H]2O[C@@](CO)(O[C@H]3O[C@H](CO)[C@@H](O)[C@H](O)[C@H]3O)[C@@H](O)[C@@H]2O)[C@@H](O)[C@@H]1O
2. OC[C@@H](O)[C@@H](O[C@H]1O[C@H](CO)[C@@H](O[C@H]2O[C@H](CO)[C@@H](O)[C@H](O)[C@H]2O)[C@H](O)[C@H]1O)[C@H](O)[C@@H](O)CO

[3, 13]

====

- MEASURED_TARGET: water-insoluble glucan producing enzyme (Streptococcus downei, UniProt P27470)
- Construct: endogenous in cells; host or cells: Streptococcus mutans 6715 strain (today S. sobrinus), culture supernatant, ammonium sulfate precipitate, dialyzed
- TEST_METHOD_NOTES: Effect of saccharides on formation of water-insoluble glucan from sucrose (Experiment 3)
- Assay type: biochemical, Streptococcus mutans 6715 strain
- PROTOCOL_CONDITIONS: 1 ml 4 w/v % sucrose plus 1 ml 4 w/v % saccharide, 0.02 units enzyme, 37° C., 16 hours; sucrose control 300
- Method: After completion of the cultivation, the culture was separated into cell precipitant and supernatant. Thereafter, to the supernatant was added with ammonium sulfate to give 60% saturation, and the resultant precipitant was dialyzed against 0.1M phosphate buffer (pH 7.2) to obtain an aqueous solution containing the enzyme. […] The inhibition degree was calculated with following equation: […]
MEASUREMENT_TYPE: A: amounts of water-insoluble glucan formed (µg/mL)
One number for each entry, in µg/mL.

Example compounds with recorded A: amounts of water-insoluble glucan formed:
# lookup: A: amounts of water-insoluble glucan formed of OC1OC[C@H](O)[C@H](O)[C@H]1O (stereo partly shown)
294

// lookup A: amounts of water-insoluble glucan formed for OC[C@H]1O[C@H](OC[C@H]2O[C@H](O[C@H]3[C@H](O)[C@@H](O)C(O)O[C@@H]3CO)[C@H](O)[C@@H](O)[C@@H]2O)[C@H](O)[C@@H](O)[C@@H]1O (stereo partly shown)
48

So what does the record say about A: amounts of water-insoluble glucan formed for "OC[C@H]1O[C@H](O[C@H]2O[C@H](CO)[C@@H](O)[C@H](O)[C@H]2O)[C@H](O)[C@@H](O)[C@@H]1O" ?
297

Request the reported A: amounts of water-insoluble glucan formed associated with CC(=O)N[C@H]1C(O)O[C@H](CO)[C@@H](O)[C@@H]1O (stereo partly shown)
285

Could you tell me which A: amounts of water-insoluble glucan formed is on file for OC[C@H]1O[C@H](O[C@H]2[C@H](O)[C@@H](O)[C@@H](O[C@H]3[C@H](O)[C@@H](O)[C@@H](O[C@H]4[C@H](O)[C@@H](O)C(O)O[C@@H]4CO)O[C@@H]3CO)O[C@@H]2CO)[C@H](O)[C@@H](O)[C@@H]1O (stereo partly shown) ?
255

Can you share its A: amounts of water-insoluble glucan formed? I mean this compound: OC[C@H]1OC(O)C[C@@H](O)[C@@H]1O (stereo partly shown)
285

Provide A: amounts of water-insoluble glucan formed for all items below, preserving their order.
1. OC[C@H]1O[C@H](OC[C@H]2OC(O)[C@H](O)[C@@H](O)[C@@H]2O)[C@H](O)[C@@H](O)[C@@H]1O (stereo partly shown)
2. OC[C@H]1O[C@H](OC[C@H]2O[C@H](O[C@H]3[C@H](O)[C@@H](O)[C@@H](O[C@H]4[C@H](O)[C@@H](O)C(O)O[C@@H]4CO)O[C@@H]3CO)[C@H](O)[C@@H](O)[C@@H]2O)[C@H](O)[C@@H](O)[C@@H]1O (stereo partly shown)

1: 72; 2: 24

# batch size: 4; output A: amounts of water-insoluble glucan formed per entry
1. OC[C@H]1O[C@@H](OC[C@H]2OC(O)[C@H](O)[C@@H](O)[C@@H]2O)[C@H](O)[C@@H](O)[C@@H]1O (stereo partly shown)
2. OC[C@H]1O[C@H](O[C@H]2[C@H](O)[C@@H](O)[C@@H](OC[C@H]3OC(O)[C@H](O)[C@@H](O)[C@@H]3O)O[C@@H]2CO)[C@H](O)[C@@H](O)[C@@H]1O (stereo partly shown)
3. OC[C@H]1O[C@H](OC[C@H]2O[C@H](OC[C@H]3O[C@H](OC[C@H]4O[C@H](OC[C@H]5OC(O)[C@H](O)[C@@H](O)[C@@H]5O)[C@H](O)[C@@H](O)[C@@H]4O)[C@H](O)[C@@H](O)[C@@H]3O)[C@H](O)[C@@H](O)[C@@H]2O)[C@H](O)[C@@H](O)[C@@H]1O (stereo partly shown)
4. OC[C@H]1O[C@H](OC[C@H]2O[C@H](OC[C@H]3OC(O)[C@H](O)[C@@H](O)[C@@H]3O)[C@H](O)[C@@H](O)[C@@H]2O)[C@H](O)[C@@H](O)[C@@H]1O (stereo partly shown)

300
282
15
36

Working through the 4 compounds below one at a time, give A: amounts of water-insoluble glucan formed for each.
1. OC[C@H]1O[C@@](CO)(OC[C@H]2O[C@](O)(CO)[C@@H](O)[C@@H]2O)[C@@H](O)[C@@H]1O
2. C[C@@H]1OC(O)[C@H](O)[C@H](O)[C@H]1O (stereo partly shown)
3. OC[C@H]1O[C@H](OC[C@H]2OC(O)[C@H](O)[C@@H](O)[C@@H]2O)[C@H](O)[C@@H](O)[C@H]1O (stereo partly shown)
4. OC[C@H](O)[C@@H](O)[C@H](O)[C@H](O)CO[C@H]1O[C@H](CO)[C@@H](O[C@H]2O[C@H](CO)[C@@H](O)[C@H](O)[C@H]2O)[C@H](O)[C@H]1O

1: 288; 2: 300; 3: 300; 4: 270

Please report A: amounts of water-insoluble glucan formed for every entry that follows.
1. OC[C@@H](O)[C@@H](O[C@H]1O[C@H](CO)[C@@H](O[C@H]2O[C@H](CO[C@H]3O[C@H](CO)[C@@H](O)[C@H](O)[C@H]3O)[C@@H](O)[C@H](O)[C@H]2O)[C@H](O)[C@H]1O)[C@H](O)[C@@H](O)CO
2. OC[C@@H](O)[C@H](O)[C@@H](O)CO
3. OC[C@@H](O)[C@@H](O)CO

1: 48; 2: 280; 3: 290
